Would you kindly list cell count for each of these compounds?
Test: up-regulation of insulin promoter-GFP reporter – imaging, high-content screening, mouse beta cells (AID 1625);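 on cell count: total cells summed across four imaged fields per well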
Conditions: MIN6 insulin promoter-GFP reporter, at 5 µM; measured here: cytotoxicity, nuclei count
The whole screen tested about 190,000 compounds, of which about 570 (0.3%) were called active. Shown is part of a subset that was picked to be rich in actives.
Record the value in cells, omitting the unit from your answer.

Input line: Name the reported cell count value associated with the compound Cc1nn(-c2ccccc2)c(C)c1NC(=O)COc1ccc(Cl)cc1Cl
Output line: 1470

Input line: Name the reported cell count value associated with the compound C=CCNC(=S)N1CCN(CCN=Cc2c(C)[nH]n(-c3ccc([N+](=O)[O-])cc3)c2=O)CC1
Output line: 1470

Input line: Name the reported cell count value associated with the compound O=C(Nc1nnc(Cc2ccccc2)s1)c1cnccn1
Output line: 1430

Input line: Name the reported cell count value associated with the compound O=C(CN1C(=O)CC(c2ccccc2)S(=O)(=O)c2ccccc21)NC1CCCC1 (configuration not stated)
Output line: 1220

Input line: Name the reported cell count value associated with the compound Cc1ccc(SC(C)C(=O)NCc2ccc(F)cc2)cc1 (configuration not stated)
Output line: 1600

Input line: Name the reported cell count value associated with the compound Cc1[nH]n(-c2ccc([N+](=O)[O-])cc2)c(=O)c1C=NCCN1CCN(C(=O)c2ccccc2F)CC1
Output line: 1450

Input line: Name the reported cell count value associated with the compound O=C(COC(=O)C1CCCCC1)Nc1ccc([N+](=O)[O-])cc1
Output line: 1220

Input line: Name the reported cell count value associated with the compound COc1ccc(C2C(C(=O)Nc3ccccc3OC)=C(C)Nc3nnnn32)c(OC)c1 (configuration not stated)
Output line: 1590

Input line: Name the reported cell count value associated with the compound Cc1cccc(N(C)C(=O)c2cc3c(=O)[nH]c4ccc(C)cc4c3s2)c1
Output line: 642

Input line: Name the reported cell count value associated with the compound Cc1oc(-c2ccccc2F)nc1CS(=O)(=O)CC(=O)NCCCN(C)C1CCCCC1
Output line: 1560

Input line: Name the reported cell count value associated with the compound CCOC(=O)CSc1nc2c(sc(=S)n2CCc2ccccc2)c(=O)n1Cc1ccco1
Output line: 1440

Input line: Name the reported cell count value associated with the compound Cn1nc(C(C)(C)C)c([N+](=O)[O-])c1C(N)=O
Output line: 1080

Input line: Name the reported cell count value associated with the compound CN(CCCNC(=O)CN1C(=O)CC(C)(C)S(=O)(=O)c2ccccc21)C1CCCCC1
Output line: 1010

Input line: Name the reported cell count value associated with the compound CCc1nnc(NC(=O)CCC(=O)O)s1
Output line: 879

Input line: Name the reported cell count value associated with the compound O=C(CS(=O)(=O)Cc1ccccc1)NCC1CCCO1 (configuration not stated)
Output line: 1220

Input line: Name the reported cell count value associated with the compound O=C1CN(C(=O)COC(=O)c2cnc(Cl)c(Cl)c2)c2ccccc2N1
Output line: 1340

Input line: Name the reported cell count value associated with the compound Cc1oc(C(N)=O)cc1COc1ccc(C(N)=O)cc1
Output line: 1120

Input line: Name the reported cell count value associated with the compound CCCCCOC(=O)C1=C(C)Nc2nnnn2C1c1ccc(OC)c(OC)c1OC (configuration not stated)
Output line: 1410

Input line: Name the reported cell count value associated with the compound O=C(NN1C(=O)C2C(C1=O)C1C=CC2C12CC2)c1ccccc1Cl (configuration not stated)
Output line: 1130

Input line: Name the reported cell count value associated with the compound CCOC(=O)CN(C(=O)COc1nc(-c2ccccc2)cc(C)c1C#N)c1ccc(F)cc1
Output line: 1080

Input line: Name the reported cell count value associated with the compound COc1ccccc1CNC(=O)CCn1c(=O)sc2ccccc21
Output line: 1300

Input line: Name the reported cell count value associated with the compound O=C(CSc1ccc(-c2ccccc2)nn1)NCC1CCCO1 (configuration not stated)
Output line: 1230

---

Experiment: up-regulation of insulin promoter-GFP reporter – imaging, high-content screening, mouse beta cells (AID 1625)
Settings: MIN6 insulin promoter-GFP reporter, at 5 µM; stronger effect = higher value
Among all 190,000 compounds or so, about 570 (0.3%) were called active. The full list was thinned out, with actives kept by preference.
Response key: Criterion met means z-score >= 0.3; Criterion not met means z-score < 0.3.

Input line: # check: z-score of CN1CCN(c2ccc(S(=O)(=O)N3CCOCC3)cc2NC(=O)CCc2ccccc2)CC1 is greater than or equal to 0.3
Output line: Criterion met

Input line: # check: z-score of COc1ccc(-n2c(SCC(=O)OC(C)C)nnc2-c2ccccn2)cc1 is greater than or equal to 0.3
Output line: Criterion not met

Input line: # check: z-score of Cc1ccc(NNC(=O)C2CCC2)cc1C is greater than or equal to 0.3
Output line: Criterion not met

Input line: # check: z-score of CC(=O)c1ccc(-c2ccc(Cn3c(C)nc4cc(N)c(C)nc43)cc2)cc1 is greater than or equal to 0.3
Output line: Criterion not met

Input line: # check: z-score of COC(=O)c1sccc1NC(=O)c1csc2c1CCCC2 is greater than or equal to 0.3
Output line: Criterion not met

Input line: # check: z-score of Cc1cccc(N(C)C(=O)c2cc3c(=O)[nH]c4ccc(C)cc4c3s2)c1 is greater than or equal to 0.3
Output line: Criterion not met

Input line: # check: z-score of Cc1ccc(-n2c(Cc3cccs3)nnc2SCC(=O)OC(C)C)cc1 is greater than or equal to 0.3
Output line: Criterion met

Input line: # check: z-score of COC(=O)c1cc(C)sc1NC(=O)CC1Nc2ccccc2NC1=O (stereo unspecified) is greater than or equal to 0.3
Output line: Criterion met

Input line: # check: z-score of CCn1c(Cc2cccs2)nnc1SCC(=O)c1ccc(C)cc1 is greater than or equal to 0.3
Output line: Criterion not met

Input line: # check: z-score of CC1CCN(c2ccc([N+](=O)[O-])cc2C(N)=O)CC1 is greater than or equal to 0.3
Output line: Criterion not met

Input line: # check: z-score of COC(=O)c1sccc1NC(=O)c1cc(OC)c(OC)c(OC)c1 is greater than or equal to 0.3
Output line: Criterion met

---

Test: up-regulation of insulin promoter-GFP reporter – imaging, high-content screening, mouse beta cells (AID 1625)
Conditions: MIN6 insulin promoter-GFP reporter, at 5 µM; stronger effect = higher value
Hit rate of the full screen: of about 190,000 compounds, about 570 (0.3%) were called active. Only a selection was taken, and actives are over-represented in it overall.
Response key: Fulfilled means z-score >= 0.4; Not fulfilled means z-score < 0.4.

Input line: # check: z-score of CN(c1ccccc1)c1ccc(/C=c2\s/c(=C(/C#N)C(=O)C(C)(C)C)n(Cc3ccco3)c2=O)cc1 is greater than or equal to 0.4
Output line: Fulfilled

Input line: # check: z-score of O=C(NCCc1csc(-c2ccccc2)n1)c1ccccc1F is greater than or equal to 0.4
Output line: Fulfilled

Input line: # check: z-score of Cc1cc2c(c(=O)n1Cc1ccco1)C(c1ccccc1)C(C#N)=C(N)O2 (stereo not given) is greater than or equal to 0.4
Output line: Not fulfilled

Input line: # check: z-score of COc1ccc(-c2nc(CCNC(=O)c3ccc(Br)o3)cs2)cc1 is greater than or equal to 0.4
Output line: Not fulfilled

---

Experiment: up-regulation of insulin promoter-GFP reporter – imaging, high-content screening, mouse beta cells (AID 1625);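 on cell count: total cells summed across four imaged fields per well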
Conditions: MIN6 insulin promoter-GFP reporter, at 5 µM; measured here: cytotoxicity, nuclei count
Out of some 190,000 compounds screened, about 570 (0.3%) were called active. What follows is part of a selection rich in actives, with near analogues and random picks from the rest.
propertyName: cell count
# include the unit after the value

Input line: Name the reported cell count value associated with the compound O=C(CNC(=O)c1ccco1)OCC(=O)c1ccccc1
Output line: 1220 cells

Input line: Name the reported cell count value associated with the compound O=C(Cc1cccc2ccccc12)NCCC1=CCCCC1
Output line: 1280 cells

Input line: Name the reported cell count value associated with the compound CC(=O)c1ccc(-c2ccc(Cn3c(C)nc4cc(N)c(C)nc43)cc2)cc1
Output line: 1520 cells

Input line: Name the reported cell count value associated with the compound O=C(NCCc1ccccn1)c1cccnc1Oc1ccc(Cl)cc1
Output line: 1560 cells

Input line: Name the reported cell count value associated with the compound Cc1nc(COc2cccc(Cl)c2)sc1C(=O)/C=C/N(C)C
Output line: 1040 cells

Input line: Name the reported cell count value associated with the compound O=C(O)CC1=C(Nc2ccccc2)C(=O)N(c2ccccc2)C1c1ccc(Cl)cc1 (configuration not stated)
Output line: 1370 cells

Input line: Name the reported cell count value associated with the compound O=C(COC(=O)CNC(=O)c1ccco1)Nc1ccc(F)cc1
Output line: 1320 cells

Input line: Name the reported cell count value associated with the compound CN1CCNC(=O)C1CC(=O)NCCC1=CCCCC1 (configuration not stated)
Output line: 1390 cells

Input line: Name the reported cell count value associated with the compound Cc1ccc(NNC(=O)C2CCC2)cc1C
Output line: 1450 cells

Input line: Name the reported cell count value associated with the compound CNC(=S)NNC(=O)c1cccn(Cc2ccccc2)c1=O
Output line: 1390 cells

Input line: Name the reported cell count value associated with the compound Cc1cc(/C=N/Nc2ccc([N+](=O)[O-])cn2)c(C)n1-c1cccc(C(=O)O)c1
Output line: 1080 cells

Input line: Name the reported cell count value associated with the compound CNC(=S)NNC(=O)c1oc2nc(-c3ccccc3)cc(-c3ccco3)c2c1N
Output line: 871 cells

Input line: Name the reported cell count value associated with the compound CN(c1ccccc1)c1ccc(/C=c2\s/c(=C(/C#N)C(=O)C(C)(C)C)n(Cc3ccco3)c2=O)cc1
Output line: 1460 cells

Input line: Name the reported cell count value associated with the compound CCc1nnc(NC(=O)Cc2cccs2)s1
Output line: 1560 cells

Input line: Name the reported cell count value associated with the compound Cc1nc2c(c(=O)n1Cc1ccco1)c1nc3ccccc3nc1n2Cc1ccccc1
Output line: 1260 cells

Input line: Name the reported cell count value associated with the compound COc1ccc(OC)c(CNC(=O)c2cc(=O)[nH]c3ccc(S(=O)(=O)N4CCCC4)cc23)c1
Output line: 1540 cells

Input line: Name the reported cell count value associated with the compound Cc1cccc(-n2c(C)cc(/C=N/NC(N)=S)c2C)c1
Output line: 1370 cells

Input line: Name the reported cell count value associated with the compound c1ccc2[nH]c(NCCN3CCOCC3)nc2c1
Output line: 1180 cells

Input line: Name the reported cell count value associated with the compound OC(c1ccccc1)C(CN1CCOCC1)c1ccccc1 (configuration not stated)
Output line: 1160 cells

Input line: Name the reported cell count value associated with the compound Cc1cc2nc3c(=O)n(Cc4ccccc4)c(=O)[nH]c3nc2cc1N
Output line: 1490 cells

Input line: Name the reported cell count value associated with the compound CCOc1cccc(/C=C/c2ccc3ccccc3n2)c1OC(C)=O
Output line: 1230 cells

Input line: Name the reported cell count value associated with the compound O=C(NNC(=S)NC(=O)c1cn(-c2ccccc2)nc1-c1ccccc1)c1ccncc1
Output line: 1140 cells
